- target entity: T1, PHD2 and PHD3 fingers of human MLL4 (aa 227-324) (human, UniProt O14686 227-324)
- T1 construct: PHD2 and PHD3 fingers of human MLL4 (KMT2D), aa 227-324; also called MLL4_(PHD2/3); MLL4 PHD2/3; source: E. coli BL21-CodonPlus, purified (glutathione agarose, PreScission cleavage; unlabeled proteins also SEC)
- T1 sequence (looked up): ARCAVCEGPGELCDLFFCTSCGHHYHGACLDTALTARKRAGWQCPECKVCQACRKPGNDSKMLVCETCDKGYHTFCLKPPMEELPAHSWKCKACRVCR
- assay: other fluorescence titration; tryptophan fluorescence, 25 °C; 1.0 µM MLL4 PHD2/3 or MLL3 PHD2/3 with increasing peptide; excitation 295 nm; 20 mM Tris pH 7.2, 150 mM NaCl, 1 mM TCEP, 0.02% Tween20; average of three measurements
- test conditions: both partners purified

binder	Kd, µM
NRTGARTLADIKAKAQLVKAQ (peptide, UniProt Q76L83 650-670, looked up, also called ASXL2 (aa 650-670); MBH of ASXL2; source: synthetic peptide (SynPeptide)) [ASXL2 peptide (residues 650-670 of ASXL2)]	0.7
NRTGARTLADIKAKA (peptide, UniProt Q76L83 650-664, looked up, ASXL2, residues 650-664; also called ASXL2_(650-664); ASXL2 (aa 650-664); source: synthetic peptide (SynPeptide)) [ASXL2 peptide, residues 650-664]	98
TLADIKAKAQLVKAQ (peptide, UniProt Q76L83 656-670, looked up, ASXL2, residues 656-670; also called ASXL2_(656-670); ASXL2 (aa 656-670); source: synthetic peptide (SynPeptide)) [ASXL2 peptide, residues 656-670]	700
RNTGARTLADIKARAQQARAQ (peptide, UniProt Q9C0F0 1047-1067, looked up, ASXL3, residues 1047-1067; also called ASXL3 (aa 1047-1067); source: synthetic peptide (SynPeptide)) [ASXL3 peptide (aa 1047-1067)]	1.4
